So I've got a bunch of substances here, and I need their normalised inhibition (eCFP-eYFP dual reporter) values.
# subject_of_test: UBE2V1
# experimental_protocol: reporter assay of Huesken 2005; also: test concentration or dose not given here
# measurement_setup: siRNA
Oligonucleotides are written 5' to 3', each unit as a sugar letter and its base; * is a phosphorothioate linkage, no mark a phosphodiester; rarer units and linkages stand in square brackets, end groups in braces. Plain capitals give the bases only. d = 2'-deoxy (DNA); r = 2'-OH (RNA)
The reply should contain only the number, in %.

Look up and state reported normalised inhibition (eCFP-eYFP dual reporter) for sense rGrUrArGrGrArGrArUrGrGrCrArCrArGrUrUrAdTdT / antisense rUrArArCrUrGrUrGrCrCrArUrCrUrCrCrUrArCdTdC
88.8

Please report normalised inhibition (eCFP-eYFP dual reporter) for the following substance: sense rGrUrCrUrArGrArArGrArUrGrArCrGrArArGrAdTdT / antisense rUrCrUrUrCrGrUrCrArUrCrUrUrCrUrArGrArCdCdC
92

Fill in normalised inhibition (eCFP-eYFP dual reporter) for record sense rUrUrArArArArUrArGrArArUrGrUrGrGrArCrCdTdT / antisense rGrGrUrCrCrArCrArUrUrCrUrArUrUrUrUrArAdGdG
38.8

Provide one value: measured normalised inhibition (eCFP-eYFP dual reporter) of sense rGrCrCrArUrArUrCrArGrUrGrCrUrArGrCrArAdTdT / antisense rUrUrGrCrUrArGrCrArCrUrGrArUrArUrGrGrCdTdC
92.1

Please report the measured normalised inhibition (eCFP-eYFP dual reporter) for sense rCrGrArArUrArUrArCrArGrCrCrUrUrArArArAdTdT / antisense rUrUrUrUrArArGrGrCrUrGrUrArUrArUrUrCrGdGdT
89.4

Query normalised inhibition (eCFP-eYFP dual reporter) for sense rUrCrGrGrCrGrCrCrUrArArUrGrArUrGrUrCrUdTdT / antisense rArGrArCrArUrCrArUrUrArGrGrCrGrCrCrGrAdAdG
78.8

Identify normalised inhibition (eCFP-eYFP dual reporter) associated with the substance sense rCrCrUrUrUrGrUrArArGrArUrUrUrGrUrArArCdTdT / antisense rGrUrUrArCrArArArUrCrUrUrArCrArArArGrGdGdG
63.8

Give the reported value of normalised inhibition (eCFP-eYFP dual reporter) for this record: sense rCrUrUrGrArArCrCrUrArGrArArArArUrUrUrCdTdT / antisense rGrArArArUrUrUrUrCrUrArGrGrUrUrCrArArGdTdC
53.5

Supply normalised inhibition (eCFP-eYFP dual reporter) value. Item: sense rArArArUrUrUrCrArCrUrGrCrArArArGrGrArGdTdT / antisense rCrUrCrCrUrUrUrGrCrArGrUrGrArArArUrUrUdTdC
45.8

Fill in reported normalised inhibition (eCFP-eYFP dual reporter) for this entry: sense rCrArArGrArGrCrUrUrCrGrGrCrGrCrCrUrArAdTdT / antisense rUrUrArGrGrCrGrCrCrGrArArGrCrUrCrUrUrGdCdA
84.1

# return recorded normalised inhibition (eCFP-eYFP dual reporter) for entry sense rArGrGrArGrUrArGrGrArGrArUrGrGrCrArCrAdTdT / antisense rUrGrUrGrCrCrArUrCrUrCrCrUrArCrUrCrCrUdTdT
92.3

Return normalised inhibition (eCFP-eYFP dual reporter) for the following substance: sense rArGrUrArArArArGrUrCrCrCrUrCrGrCrArArUdTdT / antisense rArUrUrGrCrGrArGrGrGrArCrUrUrUrUrArCrUdCdC
91

From: the OligoGym collection
